Target: Nav 1.7 (Homo sapiens (Human))
Sequence (Q15858 whole entry): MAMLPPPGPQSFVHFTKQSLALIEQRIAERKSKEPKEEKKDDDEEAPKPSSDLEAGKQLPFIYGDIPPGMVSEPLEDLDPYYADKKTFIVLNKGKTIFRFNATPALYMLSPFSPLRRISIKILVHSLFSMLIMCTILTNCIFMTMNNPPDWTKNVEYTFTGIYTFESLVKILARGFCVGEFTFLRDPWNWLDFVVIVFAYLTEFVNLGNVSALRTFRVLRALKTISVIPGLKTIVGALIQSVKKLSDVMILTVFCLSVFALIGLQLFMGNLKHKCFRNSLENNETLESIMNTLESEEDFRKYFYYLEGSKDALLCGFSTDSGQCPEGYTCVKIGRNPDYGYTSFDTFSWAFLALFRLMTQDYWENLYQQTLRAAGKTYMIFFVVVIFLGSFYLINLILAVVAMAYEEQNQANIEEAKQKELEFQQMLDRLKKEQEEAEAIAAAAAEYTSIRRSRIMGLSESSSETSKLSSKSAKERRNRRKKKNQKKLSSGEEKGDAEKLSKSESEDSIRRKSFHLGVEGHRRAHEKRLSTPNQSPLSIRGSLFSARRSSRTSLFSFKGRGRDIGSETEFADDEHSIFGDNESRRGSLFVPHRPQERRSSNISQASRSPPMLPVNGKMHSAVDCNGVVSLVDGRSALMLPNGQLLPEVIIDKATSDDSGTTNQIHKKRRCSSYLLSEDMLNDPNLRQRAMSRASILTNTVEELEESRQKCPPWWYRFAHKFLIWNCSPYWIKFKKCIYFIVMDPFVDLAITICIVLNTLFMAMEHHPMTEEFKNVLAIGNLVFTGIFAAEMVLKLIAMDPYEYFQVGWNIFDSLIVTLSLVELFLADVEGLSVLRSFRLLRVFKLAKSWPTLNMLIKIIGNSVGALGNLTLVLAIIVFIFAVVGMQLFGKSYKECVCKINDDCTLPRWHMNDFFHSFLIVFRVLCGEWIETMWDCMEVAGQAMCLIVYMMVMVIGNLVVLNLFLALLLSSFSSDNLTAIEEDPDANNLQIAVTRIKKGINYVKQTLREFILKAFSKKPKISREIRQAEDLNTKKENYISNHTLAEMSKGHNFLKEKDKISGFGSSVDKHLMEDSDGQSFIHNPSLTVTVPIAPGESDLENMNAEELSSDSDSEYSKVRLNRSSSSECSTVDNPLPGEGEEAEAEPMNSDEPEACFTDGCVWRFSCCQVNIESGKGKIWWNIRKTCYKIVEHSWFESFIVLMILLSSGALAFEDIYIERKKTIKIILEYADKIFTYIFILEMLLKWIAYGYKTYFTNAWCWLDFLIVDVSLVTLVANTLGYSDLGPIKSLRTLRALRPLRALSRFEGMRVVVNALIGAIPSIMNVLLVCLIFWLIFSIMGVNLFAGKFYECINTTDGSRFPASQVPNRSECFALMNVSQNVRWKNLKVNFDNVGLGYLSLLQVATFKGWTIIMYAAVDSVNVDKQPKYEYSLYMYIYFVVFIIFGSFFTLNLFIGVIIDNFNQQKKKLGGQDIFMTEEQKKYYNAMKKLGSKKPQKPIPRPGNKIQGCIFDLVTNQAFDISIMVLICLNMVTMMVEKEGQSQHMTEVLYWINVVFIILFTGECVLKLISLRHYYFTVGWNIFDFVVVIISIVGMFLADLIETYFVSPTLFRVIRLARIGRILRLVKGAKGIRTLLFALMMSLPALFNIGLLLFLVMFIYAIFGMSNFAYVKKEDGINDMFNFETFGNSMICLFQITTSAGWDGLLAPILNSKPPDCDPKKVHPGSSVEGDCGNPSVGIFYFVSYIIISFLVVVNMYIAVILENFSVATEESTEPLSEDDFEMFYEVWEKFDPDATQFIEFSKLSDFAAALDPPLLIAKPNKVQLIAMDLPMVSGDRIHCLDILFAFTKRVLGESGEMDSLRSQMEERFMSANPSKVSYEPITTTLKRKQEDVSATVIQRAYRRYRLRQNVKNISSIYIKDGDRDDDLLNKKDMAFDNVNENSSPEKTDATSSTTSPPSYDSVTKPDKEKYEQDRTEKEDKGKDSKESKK
Experiment: in-vitro Nav 1.7 PX (IC50)
Format: cell-based
pIC50: −log10 of the molar value.
quantity-measured: pIC50

[
  {
    "molecule": "COc1cc(-c2cnc(OC)c(Cl)c2)c(F)cc1-n1c(=O)ccc2cc(S(=O)(=O)Nc3cccnn3)ccc21 (atropisomer, axis not shown; (P))",
    "assay-system": "Nav 1.7 (Homo sapiens (Human))",
    "observed": 7.20
  }
]

[I] COc1cc(-c2ccc(Cl)c(C)c2)ccc1-n1c(=O)ccc2cc(S(=O)(=O)Nc3ccon3)ccc21 (atropisomer, axis not shown; (P)) [Example 432]
[II] COc1cc(-c2ccc(Cl)c(C)c2)ccc1-n1c(=O)cnc2cc(S(=O)(=O)Nc3ncccn3)ccc21
Lowest pIC50? choose I or II Your choice should be expressed through its label.
II
